# Target Under Test: T1, ECF15_524
# T1 chain: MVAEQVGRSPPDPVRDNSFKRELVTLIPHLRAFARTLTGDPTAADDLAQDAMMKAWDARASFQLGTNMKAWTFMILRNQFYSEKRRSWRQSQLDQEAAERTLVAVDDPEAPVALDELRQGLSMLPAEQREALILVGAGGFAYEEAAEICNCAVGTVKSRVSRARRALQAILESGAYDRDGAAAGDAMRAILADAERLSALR
Value Kind: fold repression
Answer with a bare number; do not write a unit.

AS14_1324 (protein) MSGSRPEPEGHLAEQHLGDRLSALVDGELGHDARERVLAHVATCPKCKAEVDAQRRLKNVFAEAAPPAPSESFLARLQGLPGGGDSDGGGSPFSGLPGGFGASAASGVFGPRRDERFEFDYVPAGSHTPVLPSATSGRGFRIHEVGRHESDRSASRGLRFAFAAAGAVSLAAIALGGVTLGTPDTTTEARGSGSGSNVTPLRTPGSAAATGSESQRRRTAGPLLGQGQRALGDLPVASTTASAPLLPGMPAPAGGDARQQAVRALTTPVTAGAAAMSPLIRPLEAVPPLSLSSWSAAPEVRPPGLLAAPDPAPSPYPAASPAASSSPLR :: 5.32
AS16_973 (protein) MKTDDLIALLAAGEGPVPRHAVGRRMAVAALGGLTAALLLTITLYGVRSDITEVAQTPLFWGKVAFPTSLALIGLWLTSRLARPGGKGAAGWKMLGLPLLLVWCGAAVSIAGAPVDARADLLFGRTWRTCALNIALLSVPAFVTVFWALKGLAPTRLRLAGAAGGLLAGSSATVAYCLHCPEMGVPFWGVWYVLGMLVPTVLGAWWGPRMLRW :: 0.668
AS15_524 (protein) MNFGVEDMIEHVPMEDKRKGAAALDEARLRQQAIGVKLRQMFDEVVNEPVPDEFLAILRKAERPAGGE :: 31.4
AS11_987 (protein) MNKHPDNNLLEAYASGSIDAVSGLVVATHLETCSKCRAYVNQVEASQANTVSESPSEYSPEFDDMLNDIINAEPVNDNVVIQDTAFVNVAGKSFELPKTLVRFSDLVGSWRSYGGKVFSAQIDLGEDARVSLMYIGENVQIPQHTHRGLESTLVLHGGFSDEDGQYEEGDLMVRDASVKHSPFTQEGEDCLCLTVLTEPMIFTQGVARIFNLFGKGLYP :: 3.35
AS35_3582 (protein) MNPQKHSASVAEEQMLAHFRAHAPQQPAPALDQAILAAARRQAAHVEPARSWWRRWLEASRRPRWQAAFASLLGVALVLGLVSHNVLDDAERQARPEVAFSDVPLRDGVAGAAAAKRAMRAPAAPAPLSGEMSEPPALLASYASSGEAPQLMAEAAPPAPAALADRPPAQAAQQAKVQAALAGDFVAQARGKAVAVKPEVLDEALGAVLALREQGKTEQAATQLAELQKRFPGENLVERLERLATIAASARKRP :: 5.37

query: What value of measured fold repression is listed for AS03_1198 (protein) MDKDFDFDNIGKRTPYRTPDNFFEETQRKILERTVDEQRKKRRLKRIIPTVIAVAAVLAGILFTPSLRYMNTDTPSASNILAVDKNNVTTDPVDKWIKELSDEELEELVSFSENDIFLN ?
result: 1.49
